assay: Inhibition of human Tryptase
Quantity Name: IC50 (nM)

(A) CC(C)(C)NC(=O)N1CCN(C(=O)N2C(=O)[C@H](CCCN=C(N)N)[C@H]2C(=O)O)CC1
(B) O=C(O)[C@@H]1[C@@H](CCC2CCCNC2)C(=O)N1C(=O)N1CCN(C(=O)CCCCCc2ccccc2)CC1 (some centres undefined)
Request: Please indicate which entry, A or B , has the lower recorded IC50 value. Label of pick, please.
Response: B
(B: 1.8 nM, A: 4 nM)

* * *

test system: Caco-2; assay: Antidyslipidemic activity in human Caco2 cells assessed as inhibition of cholesterol esterification; type: functional, cell-based
Quantity Name: pIC50
To interpret pIC50, take it as minus log10 of a concentration measured in moles per litre.

Request: Entry COc1ccc([C@@H]2[C@@H](CCCc3ccccc3)C(=O)N2c2ccc(OC)cc2)cc1 [SCH-48461] has what pIC50?
Response: 4.49

* * *

experiment: Inhibition of human cytomegalovirus protease; set-up: species or system Human betaherpesvirus 5
Quantity Name: pIC50
To interpret pIC50, take it as minus log10 of a concentration measured in moles per litre.

Request: Entry CC[C@@H](NC(=O)N1C(=O)CC1SC[C@H](CC(C)C)NC(=O)[C@@H](NC(=O)CC(C)(C)C)C(C)(C)C)c1ccccc1 (stereo partly specified) has what pIC50?
Response: 7.15

* * *

molecular target: Neutrophil elastase (Homo sapiens, UniProt P08246); assay: Inhibition of human leukocyte elastase
Sequence (P08246 whole entry): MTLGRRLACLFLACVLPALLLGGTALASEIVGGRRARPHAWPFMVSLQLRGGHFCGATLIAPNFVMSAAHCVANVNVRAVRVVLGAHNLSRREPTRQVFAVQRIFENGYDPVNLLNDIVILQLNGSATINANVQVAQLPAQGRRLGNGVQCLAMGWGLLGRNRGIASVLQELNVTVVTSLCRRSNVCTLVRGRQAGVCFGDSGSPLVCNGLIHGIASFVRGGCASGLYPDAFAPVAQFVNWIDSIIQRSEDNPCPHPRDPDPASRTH
Quantity Name: pIC50
To interpret pIC50, take it as minus log10 of a concentration measured in moles per litre.

Request: Entry CCOC(=O)/C=C1\[C@@H](C(C)O[Si](C)(C)C(C)(C)C)C(=O)N1C(=O)c1cc(OCc2ccccc2)c(OCc2ccccc2)c(OCc2ccccc2)c1 (stereo partly specified) has what pIC50?
Response: 6.30

* * *

assay: Antidyslipidemic activity in rat hepatic microsomes assessed as inhibition of […]; assay type: functional, Liver
Quantity Name: IC50 (µM)
Give the quantity in µM, number only.

Request: Entry COc1ccc([C@@H]2[C@@H](CCCc3ccccc3)C(=O)N2c2ccc(OC)cc2)cc1 [SCH-48461] has what IC50?
Response: 26

* * *

assay: Chemical stability of the compound in human plasma assessed as half life; assay type: ADME, cell-free
Quantity Name: half-life (h)
Give the quantity in h, number only.

Request: Entry "CCOc1ccccc1C[C@@H]1C(=O)N(C(=O)NC(c2ccccc2)c2ccccc2)[C@@H]1Oc1ccc(C(=O)O)cc1" has what half-life?
Response: 6
